- TEST_METHOD_NOTES: in vivo
- MEASUREMENT_CONDITIONS: male, Sprague Dawley, rat, po, 5 mg/kg, Brain - 2 hours (ng/g)
// returns no (0) unless concentration at 2 h is strictly below 2000 ng/g, in which case yes (1)

- CCc1ccc(CN(CCC(=O)[O-])c2nc(C3CCC(C)CC3)cs2)s1.[Na+] (stereo not drawn) [Example 5]: yes (1)
- Cc1ccc(CN(CCC(=O)[O-])c2nc(C3(C)CCC(C)CC3)cs2)s1.[Na+] (stereo not drawn) [Example 46]: yes (1)
- O=C([O-])CCN(Cc1cccs1)c1nc(-c2ccc(-c3ccccc3)cc2)cs1.[Na+] [Reference Compound B, reference compound]: no (0)
- C[C@H]1CC[C@H](Oc2ccc(-c3csc(N(CCC(=O)[O-])Cc4cccs4)n3)cc2)CC1.[Na+] [Reference Compound C, reference compound]: yes (1)
- CCc1ccc(CN(CCC(=O)[O-])c2nc(C3CCC(c4ccccc4)CC3)cs2)s1.[Na+] (stereo not drawn) [Example 39]: yes (1)
- CCc1ccc(CN(CCC(=O)[O-])c2nc([C@H]3CC[C@H](C(C)(C)C)CC3)cs2)s1.[Na+] [Example 8]: yes (1)

* * *

Measured concentration at 2 h, listed per entry.
- TEST_METHOD_NOTES: Pharmacokinetic screening in rats (plasma and brain)
- MEASUREMENT_CONDITIONS: male, Sprague Dawley, rat, brain, po, 5 mg/kg, Brain - 2 hours (ng/g), 5 mg/kg PO, 2 hour time point
READOUT_NAME: concentration at 2 h (ng/g)

- CCc1ccc(CN(CCC(=O)[O-])c2nc(C3(C)CCC(C)CC3)cs2)s1.[Na+] (stereo not shown): 886
- Cc1ccc(CN(CCC(=O)O)c2nc(C3(CC(C)C)CCCC3)cs2)s1: 42
- CCc1ccc(CN(CCC(=O)O)c2nc(CC3CCCCC3)cs2)s1: 691
- Cc1cc(CN(CCC(=O)O)c2nc(C3CCC(C(C)C)CC3)cs2)c(C)s1 (stereo not shown): 942

* * *

- TEST_METHOD_NOTES: Stability in Liver Microsomes (rat)
- Type: in vitro ADME
- MEASUREMENT_CONDITIONS: 1 μM, 0.5 mg protein/mL, NADPH, 60 minutes, 37° C., pH 7.4
Lab note - cut at 70% for Stability in Liver Microsomes (% remaining after 1 hour incubation) Rat: true (1) if strictly below, false (0) if not.

- CCc1ccc(CN(CCC(=O)[O-])c2nc(-c3ccc(N4CCCC4)cc3)cs2)s1.[Na+] [Reference Compound F, reference compound]: true (1)
- CCCC1CCC(c2csc(N(CCC(=O)O)Cc3ccc(C)s3)n2)CC1 (stereo not shown) [Example 21]: true (1)
- CCc1ccc(CN(CCC(=O)[O-])c2nc([C@H]3CC[C@H](C(C)(C)C)CC3)cs2)s1.[Na+] [Example 8]: false (0)
- O=C([O-])CCN(Cc1cccs1)c1nc(-c2ccc(-c3ccccc3)cc2)cs1.[Na+] [Reference Compound B, reference compound]: false (0)
- CC(C)c1ccc(-c2csc(N(CCC(=O)[O-])Cc3cccs3)n2)cc1.[Na+] [Reference Compound A, reference compound]: true (1)
- COC1CCC(c2csc(N(CCC(=O)O)Cc3ccc(C)s3)n2)CC1 (stereo not shown) [Example 31]: false (0)
- Cc1ccc(CN(CCC(=O)[O-])c2nc([C@H]3CC[C@H](C(C)C)CC3)cs2)s1.[Na+] [Example 9]: true (1)
- Cc1ccc(CN(CCC(=O)[O-])c2nc([C@H]3CC[C@H](C(C)(C)C)CC3)cs2)s1.[Na+] [Example 7]: true (1)
- Cc1ccc(CN(CCC(=O)O)c2nc([C@H]3CC[C@H](c4ccccc4)CC3)cs2)s1 [Example 38]: false (0)

* * *

Recorded Stability in Liver Microsomes (% remaining after 1 hour incubation) Monkey for the following compounds
- TEST_METHOD_NOTES: Stability in Liver Microsomes (monkey)
- Format: in vitro ADME
- MEASUREMENT_CONDITIONS: 1 μM, 0.5 mg protein/mL, NADPH, 60 minutes, 37° C., pH 7.4
READOUT_NAME: Stability in Liver Microsomes (% remaining after 1 hour incubation) Monkey (%)

- Cc1cc(CN(CCC(=O)O)c2nc(C3CCC(C(C)C)CC3)cs2)c(C)s1 (centres unmarked) [Example 26]: 67
- CCCC1CCC(c2csc(N(CCC(=O)O)Cc3ccc(C)s3)n2)CC1 (centres unmarked) [Example 21]: 47
- Cc1ccc(CN(CCC(=O)[O-])c2nc([C@H]3CC[C@H](C(C)(C)C)CC3)cs2)s1.[Na+] [Example 7]: 67
- O=C([O-])CCN(Cc1cccs1)c1nc(-c2ccc(-c3ccccc3)cc2)cs1.[Na+] [Reference Compound B, reference compound]: 64
- Cc1ccc(CN(CCC(=O)O)c2nc(C3CCC(F)(F)CC3)cs2)s1 [Example 23]: 56

* * *

- EXPERIMENTAL_SYSTEM: human MC-4R (Homo sapiens, UniProt P32245)
- Construct: expressed in transfected cells
- Sequence (P32245 whole entry): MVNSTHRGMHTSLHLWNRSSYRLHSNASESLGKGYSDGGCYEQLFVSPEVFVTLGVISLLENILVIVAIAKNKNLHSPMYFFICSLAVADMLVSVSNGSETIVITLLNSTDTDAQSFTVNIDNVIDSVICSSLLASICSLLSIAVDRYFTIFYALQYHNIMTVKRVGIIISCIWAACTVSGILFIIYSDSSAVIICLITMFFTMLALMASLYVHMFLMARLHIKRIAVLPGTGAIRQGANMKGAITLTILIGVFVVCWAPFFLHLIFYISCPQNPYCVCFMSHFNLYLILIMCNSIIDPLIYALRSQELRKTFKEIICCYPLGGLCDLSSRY
- TEST_METHOD_NOTES: Biological Assay: inhibition of AgRP functional interaction with MC-4R in presence of αMSH (cAMP production)
- Assay type: cell-based
- MEASUREMENT_CONDITIONS: HEK293 cells expressing human MC-4R, AgRP83-132 and αMSH present; read-out: Average EC50 (nM) in Biological Assay
- Procedure: The following method is illustrative of techniques that may be employed to measure the ability of the compounds of Formula (I) to functionally modulate the binding of AgRP to melanocortin receptors. […] The inhibitory or enhancement effect of compounds on AgRP activity was measured in a multi-component assay containing testing compounds, AgRP83-132 (human, Phoenix Pharma, cat no. 003-53), cells expressing MC-4R, and αMSH (Bachem, cat no. H-1075). […]
Exam item: assign Yes to entries whose EC50 is below 400 nM and No to entries at or above 400 nM. Note that a value of exactly 400 nM receives No.

• CCc1ccc(CN(CCC(=O)O)c2nc(C3CCC(OC)CC3)cs2)s1 (centres unmarked) [Example 32] = No
• Cc1ccc(CN(CCC(=O)O)c2nc(C3CCC(C(F)(F)F)CC3)cs2)s1 (centres unmarked) [Example 18] = No
• CC(C)(C)C1CCC(c2csc(N(CCC(=O)O)Cc3ccc(S(C)(=O)=O)s3)n2)CC1 (centres unmarked) [Example 36] = Yes
• Cc1ccc(CN(CCC(=O)O)c2nc(C3(C)CCC(c4ccccc4)CC3)cs2)s1 (centres unmarked) [Example 51] = Yes

* * *

Measured Stability in Liver Microsomes (% remaining after 1 hour incubation) Mouse of individual entries
- TEST_METHOD_NOTES: Stability in Liver Microsomes (mouse)
- Assay type: in vitro ADME
- MEASUREMENT_CONDITIONS: 1 μM, 0.5 mg protein/mL, NADPH, 60 minutes, 37° C., pH 7.4
READOUT_NAME: Stability in Liver Microsomes (% remaining after 1 hour incubation) Mouse (%)

* O=C([O-])CCN(Cc1cccs1)c1nc(-c2ccc(-c3ccccc3)cc2)cs1.[Na+] [Reference Compound B, reference compound] | 99
* CCc1ccc(CN(CCC(=O)[O-])c2nc([C@H]3CC[C@H](C(C)(C)C)CC3)cs2)s1.[Na+] | 88
* Cc1ccc(CN(CCC(=O)[O-])c2nc([C@H]3CC[C@H](C(C)C)CC3)cs2)s1.[Na+] | 69

* * *

- EXPERIMENTAL_SYSTEM: human MC-4R (Homo sapiens, UniProt P32245)
- Construct: expressed in transfected cells
- TEST_METHOD_NOTES: Biological Assay: inhibition of AgRP functional interaction with MC-4R in presence of αMSH (cAMP production)
- Format: cell-based
- MEASUREMENT_CONDITIONS: HEK293 cells expressing human MC-4R, AgRP83-132 and αMSH present; read-out: Average EC50 (nM) in Biological Assay
Mark each entry YES if its EC50 sits below 300 nM, and NO for all others.

* Cc1ccc(CN(CCC(=O)O)c2nc(C3(c4ccc(F)cc4)CCCC3)cs2)s1 [Example 34] | YES
* CCc1ccc(CN(CCC(=O)[O-])c2nc(C3CCC(c4ccccc4)CC3)cs2)s1.[Na+] (stereo not drawn) [Example 39] | YES
* CCc1ccc(CN(CCC(=O)O)c2nc([C@H]3CC[C@H](C(C)C)CC3)cs2)s1 [Example 10] | YES
* Cc1ccc(CN(CCC(=O)[O-])c2nc(C3CCC(C4CCCCC4)CC3)cs2)s1.[Na+] (stereo not drawn) [Example 60] | YES
* CCC1(c2csc(N(CCC(=O)O)Cc3ccc(C)s3)n2)CCC(C)CC1 (stereo not drawn) [Example 45] | YES
* CCc1ccc(CN(CCC(=O)O)c2nc(C3CCC(OC)CC3)cs2)s1 (stereo not drawn) [Example 33] | NO
* COC1CCC(c2csc(N(CCC(=O)O)Cc3ccc(C)s3)n2)CC1 (stereo not drawn) [Example 30] | NO
* CCc1ccc(CN(CCC(=O)[O-])c2nc([C@H]3CC[C@H](C(C)(C)C)CC3)cs2)s1.[Na+] [Example 8] | YES
* Cc1ccc(CN(CCC(=O)O)c2nc([C@H]3CC[C@H](c4ccccc4)CC3)cs2)s1 [Example 38] | YES
